Every entry's value here was drawn from paper PMC5540273.

Listed here are molecules together with their documented %Inh.
Test system: ANKK1
Conditions: concentration: 1 μM, replicates: in singlicate; n = 1;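 also: KINOMEscan kinase panel screen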
experimental endpoint: %Inh (%)

Cc1ccc(-c2ccc3c(ccc4sc5c(c43)NC[C@@H](C)N=C5N(C)C)n2)cn1 :: 0
Cc1cccc(-c2nc(Nc3ccc4c(cnn4C)c3)c3ccccc3n2)n1 :: 16
COC(=O)c1c(-c2ccccc2)c2cc(Br)ccc2c(=O)n1Cc1ccc(S(C)(=O)=O)cc1 :: 0
CCn1c(-c2ccoc2)nc2cnccc21 :: 0
COc1cc2ncn(-c3cc(OCc4ccncc4)c(C(N)=O)s3)c2cc1OC :: 0
Nc1nccc2scc(-c3ccc4c(c3)CCN4C(=O)Cc3ccccc3)c12 :: 21
COc1cccc(C2=C(Nc3cccc(C(=O)O)c3)C(=O)NC2=O)c1 :: 70
CCS(=O)c1ccc(-c2coc3ccc(-c4nnc(C)o4)cc23)cc1 (stereo not drawn) :: 30
O=c1cc(N2CCOCC2)nc2n(Cc3ccc(F)c(Cl)c3)ccn12 :: 13

* * *

Listed compounds paired with reported %Inh
Tested on: NDR2
Conditions: concentration: 1 μM, replicates: in singlicate; n = 1
experimental endpoint: %Inh (%)

O=c1cc(N2CCOCC2)nc2n(Cc3ccc(F)c(Cl)c3)ccn12 :: 0
CN(C)c1cc(-c2ccc3c(N)n[nH]c3c2)nc(N)n1 :: 0
CCc1nc(-c2cccc(C)c2)c(-c2ccncc2)s1 :: 0
COc1cc2ncn(-c3cc(OCc4ccncc4)c(C(N)=O)s3)c2cc1OC :: 0
Nc1ncnc2c1ncn2-c1ccc(Cl)cc1 :: 31
COc1cc(OC)cc(-c2cc3cnc(N)nc3nc2NC(=O)NC(C)(C)C)c1 :: 0
CCn1c(-c2nonc2N)nc2ccccc21 :: 23
O=C1NC(=O)C(c2ccccc2)=C1Nc1cccc(O)c1 :: 0
OCCCNc1nccc(-c2c(-c3cccc(C(F)(F)F)c3)nn3cc(C(F)(F)F)ccc23)n1 :: 18
COC(=O)c1c(-c2ccccc2)c2cc(C)ccc2c(=O)n1Cc1ccccc1 :: 0
COc1cccc(C2=C(Nc3cccc(C(=O)O)c3)C(=O)NC2=O)c1 :: 0
C[C@@H]1CC[C@H](C(=O)NC2CCCCC2)CN1c1cc(-c2ccc3c(N)n[nH]c3c2)nc(N)n1 :: 7
COc1cc2nccc(Nc3ccc(OCc4ccc(NC(C)=O)cc4)cc3)c2cc1OC.Cl :: 0
CN1C(=O)C(Nc2cc(Cl)c(O)c(Cl)c2)=C(c2ccc(Cl)cc2)C1=O :: 0
CC(C)(C)c1ccc(C(=O)Nc2cn3cc(-c4ccccc4)ccc3n2)cc1 :: 0
Nc1ncnc2c1ncn2-c1cccc2ccccc12 :: 4
COc1cc(Nc2ccnc3ccc(C(F)(F)F)cc23)cc(OC)c1OC :: 1
COC(=O)c1c(-c2ccccc2)c2cc(Br)ccc2c(=O)n1Cc1ccc(NC(=O)CCC(=O)O)cc1 :: 0
COc1ccc(CNC(=O)NC2CCN(c3ccnc(Nc4ccc(F)cc4)n3)C2)cc1 (stereo not shown) :: 50

* * *

System: CDKL1
Conditions: concentration: 1 μM, replicates: in singlicate; n = 1
experimental endpoint: %Inh (%)

O=C(Nc1n[nH]c2nc(-c3ccccc3)c(Br)cc12)C1CC1 [SB-708998] :: 0
C[C@@H]1CC[C@H](C(=O)NC2CCCCC2)CN1c1cc(-c2ccc3c(N)n[nH]c3c2)nc(N)n1 [GSK2291363] :: 0
CCc1ccc(-c2ccc3c(c2)-c2nn(C)cc2S(=O)(=O)N3C)cc1 :: 9
CN1C(=O)C(Nc2cc(Cl)c(O)c(Cl)c2)=C(c2ccc(Cl)cc2)C1=O [SB-404321] :: 0
CCS(=O)c1ccc(-c2coc3ccc(-c4nnc(C)o4)cc23)cc1 (stereo not drawn) :: 0
CCC(=O)c1c(-c2ccccc2)c2cc(Cl)ccc2c(=O)n1Cc1cc(S(C)(=O)=O)n(CCC(C)(C)O)n1 :: 10
Nc1nc(-c2ccccc2F)c(-c2ccnc3ccccc23)s1 [GW560459] :: 0
Cc1nnc(-c2ccc(C)c(-c3ccc(C(=O)O)cc3)c2)o1 [GW608005] :: 0
Nc1nc(N)c2nc(-c3ccccc3)[nH]c2n1 [SKF-12778] :: 0
